# credit: patent US20230265198A1

# target.or.system: T1, neuropilin-1 (NRP1) on HEK293 cells overexpressing NRP1 (UniProt O14786 22-923, limits assumed)
# T1 construct: whole, on cells
# assay.details: flow cytometry, HEK293-NRP1 vs HEK293
measure: 100 nM FACS (MFI Ratio)
Please give the numeric answer without any surrounding text.

Worked examples, 3 binders total:
Prompt: Name the recorded 100 nM FACS (MFI Ratio) for NRP1-64 (VHH) VHH: EVQLVESGGGLVQPGGSLRLSCAASGSTFRGAAMGWFRQAPGKEREWVGTISSDGTTKYADSVKGRFTISADNSKNTAYLQMNSLKPEDTAVYYCAADRVLYYSDSRYYTGSNWGQGTLVTVSS .
Completion: 0.8

Prompt: For NRP1-32 (VHH) VHH: EVQLVESGGGLVQPGGSLRLSCAASGLTFRRYDMGWFRQAPGKERELVAIIFSGGSTRYADSVKGRFTIIADNNKNTAYLQMNSLKPEDNAVYYCATSSGRVPAALNWGQGTLVTVSS then?
Completion: 0.3

Prompt: For NRP1-26 (VHH) VHH: EVQLVESGGGLVQPGGSLRLSCAASGRTFRPYRMGWFRQAPGKEREWISTIYSNGHTYYADSVKGRFTISADNSKNTAYLQMNSLKPEDTAVYYCAAQRRWSQDWGQGTLVTVSS then?
Completion: 0.9

Continuing:
Prompt: Name the recorded 100 nM FACS (MFI Ratio) for NRP1-97 (VHH) VHH: EVQLVESGGGLVQPGGSLRLSCAASGFDFDNFDDYAMGWFRQAPGKEREFVAEIGWRDTTLYADSVKGRFTISADNSKNTAYLQMNSLKPEDTAVYYCARGRYDLSDFDYWGQGTLVTVSS .
Completion: 1.7
